Test system: 415267-285-R-J2-PDC complex spheroid viability;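 also: spheroids exposed to compounds for one week before readout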
TEST_SUMMARY: Anticancer human tumor 415267-285-R-J2-PDC patient-derived breast carcinoma cell line growth inhibition [POLQ]
RUN_PARAMETERS: curve of first compound; second compound 0.0316 µM
pIC50: −log10 of the molar value.
MEASUREMENT_LABEL: pIC50

-- ask What measured pIC50 goes with O=C(c1cc(Cc2n[nH]c(=O)c3ccccc23)ccc1F)N1CCN(C(=O)C2CC2)CC1 + Cc1cccc(N(C)C(=O)C2C(O)CCN2c2nc(C)cc(C(F)(F)F)c2C#N)c1 ?
-- reply < 5.00

-- ask What measured pIC50 goes with CCc1cc2c(N3CCc4c(cc(Cn5ccnc5)cc4-c4cn(C)nc4C(F)(F)F)C3=O)cc(C)nc2c(OC)n1 + Cc1cccc(N(C)C(=O)C2C(O)CCN2c2nc(C)cc(C(F)(F)F)c2C#N)c1 ?
-- reply < 5.00

-- ask What measured pIC50 goes with CC[C@@]1(O)C(=O)OCc2c1cc1n(c2=O)Cc2cc3c(CN(C)C)c(O)ccc3nc2-1 + COC1C(OC(N)=O)C(O)C(Oc2ccc3c(O)c(NC(=O)c4ccc(O)c(CC=C(C)C)c4)c(=O)oc3c2C)OC1(C)C ?
-- reply 7.73

-- ask What measured pIC50 goes with C=CC(=O)N1CCN(c2nc(=O)n(-c3c(C)ccnc3C(C)C)c3nc(-c4c(O)cccc4F)c(F)cc23)C(C)C1 (stereo not given) + Nc1ccc(C#CCN(C(=O)Cc2ncc(C(F)(F)F)cc2C(F)(F)F)c2ccc(F)cc2)nn1 ?
-- reply < 5.00

-- ask What measured pIC50 goes with COc1ccc([C@@H](O)c2cc(-c3ncnc4cc(N5CCOCC5)ccc34)c(F)cc2Cl)nn1 + Nc1ccc(C#CCN(C(=O)Cc2ncc(C(F)(F)F)cc2C(F)(F)F)c2ccc(F)cc2)nn1 ?
-- reply < 5.00

-- ask What measured pIC50 goes with CCCS(=O)(=O)Nc1ccc(F)c(C(=O)c2c[nH]c3ncc(-c4ccc(Cl)cc4)cc23)c1F + Cc1cccc(N(C)C(=O)C2C(O)CCN2c2nc(C)cc(C(F)(F)F)c2C#N)c1 ?
-- reply < 5.00

-- ask What measured pIC50 goes with CC1COCCN1c1cc(C2(S(C)(=N)=O)CC2)nc(-c2ccnc3[nH]ccc23)n1 (stereo not given) + Nc1ccc(C#CCN(C(=O)Cc2ncc(C(F)(F)F)cc2C(F)(F)F)c2ccc(F)cc2)nn1 ?
-- reply 6.27

-- ask What measured pIC50 goes with CC(=O)O[C@H]1C(=O)[C@@]2(C)[C@H]([C@H](OC(=O)c3ccccc3)[C@]3(O)C[C@H](OC(=O)[C@H](O)[C@@H](NC(=O)c4ccccc4)c4ccccc4)C(C)=C1C3(C)C)[C@]1(OC(C)=O)CO[C@@H]1C[C@@H]2O + Cc1cccc(N(C)C(=O)C2C(O)CCN2c2nc(C)cc(C(F)(F)F)c2C#N)c1 ?
-- reply > 8.02

-- ask What measured pIC50 goes with COc1cc(C2c3cc4c(cc3C(OC3OC5COC(C)OC5C(O)C3O)C3COC(=O)C23)OCO4)cc(OC)c1O (stereo not given) + Cc1cccc(N(C)C(=O)C2C(O)CCN2c2nc(C)cc(C(F)(F)F)c2C#N)c1 ?
-- reply 6.87

-- ask What measured pIC50 goes with CCc1cc2c(N3CCc4c(cc(Cn5ccnc5)cc4-c4cn(C)nc4C(F)(F)F)C3=O)cc(C)nc2c(OC)n1 + COC1C(OC(N)=O)C(O)C(Oc2ccc3c(O)c(NC(=O)c4ccc(O)c(CC=C(C)C)c4)c(=O)oc3c2C)OC1(C)C ?
-- reply < 5.00

-- ask What measured pIC50 goes with C=CCn1c(=O)c2cnc(Nc3ccc(N4CCN(C)CC4)cc3)nc2n1-c1cccc(C(C)(C)O)n1 + Nc1ccc(C#CCN(C(=O)Cc2ncc(C(F)(F)F)cc2C(F)(F)F)c2ccc(F)cc2)nn1 ?
-- reply 6.35

-- ask What measured pIC50 goes with C#Cc1c(F)ccc2cc(O)cc(-c3ncc4c(N5CC6CCC(C5)N6)nc(OCC56CCCN5CC(F)C6)nc4c3F)c12 (stereo not given) + COC1C(OC(N)=O)C(O)C(Oc2ccc3c(O)c(NC(=O)c4ccc(O)c(CC=C(C)C)c4)c(=O)oc3c2C)OC1(C)C ?
-- reply < 5.00

-- ask What measured pIC50 goes with COc1cccc(OCCCN)c1-c1cc(Nc2cnc(C#N)cn2)n[nH]1 + Nc1ccc(C#CCN(C(=O)Cc2ncc(C(F)(F)F)cc2C(F)(F)F)c2ccc(F)cc2)nn1 ?
-- reply 8.15

-- ask What measured pIC50 goes with O=c1[nH]cc(F)c(=O)[nH]1 + Nc1ccc(C#CCN(C(=O)Cc2ncc(C(F)(F)F)cc2C(F)(F)F)c2ccc(F)cc2)nn1 ?
-- reply 6.36

-- ask What measured pIC50 goes with COc1cc2cc(C(=O)CCC(=O)O)sc2cc1OC + Cc1cccc(N(C)C(=O)C2C(O)CCN2c2nc(C)cc(C(F)(F)F)c2C#N)c1 ?
-- reply < 5.00

-- ask What measured pIC50 goes with Nc1ccn(C2OC(CO)C(O)C2(F)F)c(=O)n1 (stereo not given) + Nc1ccc(C#CCN(C(=O)Cc2ncc(C(F)(F)F)cc2C(F)(F)F)c2ccc(F)cc2)nn1 ?
-- reply > 7.50

-- ask What measured pIC50 goes with CC1COCCN1c1cc(-c2ccnn2C)c2ccnc(-c3ccn[nH]3)c2n1 (stereo not given) + COC1C(OC(N)=O)C(O)C(Oc2ccc3c(O)c(NC(=O)c4ccc(O)c(CC=C(C)C)c4)c(=O)oc3c2C)OC1(C)C ?
-- reply > 7.50

-- ask What measured pIC50 goes with COc1cc2cc(C(=O)CCC(=O)O)sc2cc1OC + Nc1ccc(C#CCN(C(=O)Cc2ncc(C(F)(F)F)cc2C(F)(F)F)c2ccc(F)cc2)nn1 ?
-- reply < 5.00

-- ask What measured pIC50 goes with CCc1cc2c(N3CCc4c(cc(Cn5ccnc5)cc4-c4cn(C)nc4C(F)(F)F)C3=O)cc(C)nc2c(OC)n1 + Nc1ccc(C#CCN(C(=O)Cc2ncc(C(F)(F)F)cc2C(F)(F)F)c2ccc(F)cc2)nn1 ?
-- reply < 5.00

-- ask What measured pIC50 goes with COc1cccc(OCCCN)c1-c1cc(Nc2cnc(C#N)cn2)n[nH]1 + Cc1cccc(N(C)C(=O)C2C(O)CCN2c2nc(C)cc(C(F)(F)F)c2C#N)c1 ?
-- reply 8.13
